tested on: Vero E6 infected with SARS-CoV-2; test: inhibition of SARS-CoV-2 cytopathic effect; higher = more antiviral protection, active = above 15; conditions: 10000 nM; 48 h
Labels: true for active, false for inactive

# MOLECULE, DISCRETE LABEL
records = [
    ("COc1ccc2c(C)nc(Nc3nc(C)c(C)c(O)n3)nc2c1", "true"),
    ("O=S(=O)(c1cccc2cnccc12)N1CCCNCC1", "false"),
    ("CC(C)[C@H](N)C(=O)OCC(CO)OCn1cnc2c(=O)nc(N)[nH]c21 (mixture of isomers)", "false"),
    ("COC(=O)C(c1ccccc1)C1CCCCN1 (centres undefined)", "false"),
    ("COc1cc(C[C@H]2c3cc(OC)c(OC)cc3CCN2C)c(Oc2cc3c(cc2OC)-c2c(OC)c(OC)cc4c2[C@H](C3)N(C)CC4)cc1OC", "true"),
    ("O=C1NC(=S)NC(=O)C1C(=O)Nc1ccccc1", "false"),
    ("CC(=O)Nc1ccc(C(=O)NC(C)(C)C)cc1", "false"),
    ("CCOC(=O)C1=C[C@]2(CC)CCCN3CCc4c(n1c1ccccc41)[C@@H]32", "false"),
    ("COc1ccc2c3c1O[C@H]1C[C@@H](O)C=C[C@@]31CCN(C)C2", "false"),
]

Every entry's value here was drawn from the supplement of paper PMC13380429.
